- Organism: Rattus norvegicus
- Method: Open TG-GATES - Regimen: Daily Repeat
- Assay type: toxicity, organism-based, Sprague-Dawley
- Set-up: regimen Daily Repeat, gender Male, age 6 weeks
- Condition details: in vivo, po, 1000 mg/kg, […], tissue Blood, route gavage, dose level High, time 14 day
Endpoint name: Ht

Previously resolved entries follow.
| Molecule | Endpoint name | Result |
| --- | --- | --- |
| CCN1CCCC1CNC(=O)c1cc(S(N)(=O)=O)ccc1OC (centres undefined) [SULPIRIDE] | Ht | 44.3% |
| O=C(N[C@H](CO)[C@H](O)c1ccc([N+](=O)[O-])cc1)C(Cl)Cl | Ht | 42.9% |
| CC(C)(S)[C@@H](N)C(=O)O | Ht | 39.8% |

Incoming: Fill in the blank: the reported Ht of `O=C(O)c1cccnc1` is ____.
Outgoing: 41.5%

// provenance: ChEMBL document CHEMBL3885861
